Data origin: PubChem BioAssay (EPA / NIEHS)

- Read-out: Interleukin-8 (IL8), CXCL8 (gene 3576)
- test_method_notes: BSK_3C_IL8: BioMAP Diversity Plus: 3C Assay for Interleukin-8 (IL8) Biomarker Activity (AID 2283020)
- experimental_parameters: primary human endothelial cells (HUVEC); actives raise or lower the signal
The source made the active and inactive calls. How the source made its calls: active means hit-call score of the fitted dose curve at least 0.9, where 1 is the maximum; inactive means score below 0.9.
Classes to choose from: active, inactive

> print(dat)
                   compound  class.name
1  CC1(C)CC(O)CC(C)(C)N1[O]    inactive

Asked: Kindly provide the recorded test outcome for the following compound: "Nc1nc(N)nc(-c2ccccc2)n1"
Given back: inactive

Asked: Kindly provide the recorded test outcome for the following compound: "CC/C=C\C/C=C\C/C=C\CCCCCCCC(=O)OC"
Given back: active

Asked: Kindly provide the recorded test outcome for the following compound: CCCCCCCCC(CO)CCCCCC (configuration not stated)
Given back: inactive

Asked: Kindly provide the recorded test outcome for the following compound: "COC(OC)(C(=O)c1ccccc1)c1ccccc1"
Given back: active

Asked: Kindly provide the recorded test outcome for the following compound: "CCCCCCCCCCCC(C)=O"
Given back: active

Asked: Kindly provide the recorded test outcome for the following compound: "O=C1CCCCCCCCCCC1"
Given back: inactive

Asked: Kindly provide the recorded test outcome for the following compound: "C=CCCCCCCCCC=O"
Given back: inactive

Asked: Kindly provide the recorded test outcome for the following compound: "C=CC(=O)OCCCCCCOC(=O)C=C"
Given back: active

###

- system_name: Estrogen receptor (Homo sapiens) + Estrogen receptor beta (Homo sapiens) (UniProt P03372+Q92731)
- Sequence (P03372 whole entry, looked up): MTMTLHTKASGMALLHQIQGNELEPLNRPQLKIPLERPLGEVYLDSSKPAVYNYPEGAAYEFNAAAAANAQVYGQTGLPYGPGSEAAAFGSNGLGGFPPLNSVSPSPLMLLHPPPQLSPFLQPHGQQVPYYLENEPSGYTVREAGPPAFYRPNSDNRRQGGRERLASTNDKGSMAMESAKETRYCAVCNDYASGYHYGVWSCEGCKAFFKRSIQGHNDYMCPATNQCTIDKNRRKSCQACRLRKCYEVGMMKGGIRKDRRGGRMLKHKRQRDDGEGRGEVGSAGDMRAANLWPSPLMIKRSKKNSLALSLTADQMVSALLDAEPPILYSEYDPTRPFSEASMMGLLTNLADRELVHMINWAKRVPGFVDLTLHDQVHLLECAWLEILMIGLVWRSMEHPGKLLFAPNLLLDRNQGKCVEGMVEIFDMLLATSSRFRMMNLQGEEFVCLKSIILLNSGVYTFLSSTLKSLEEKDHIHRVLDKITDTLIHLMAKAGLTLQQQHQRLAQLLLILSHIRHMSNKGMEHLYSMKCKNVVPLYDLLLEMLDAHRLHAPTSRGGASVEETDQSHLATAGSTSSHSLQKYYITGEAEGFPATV
- Sequence (Q92731 whole entry, looked up): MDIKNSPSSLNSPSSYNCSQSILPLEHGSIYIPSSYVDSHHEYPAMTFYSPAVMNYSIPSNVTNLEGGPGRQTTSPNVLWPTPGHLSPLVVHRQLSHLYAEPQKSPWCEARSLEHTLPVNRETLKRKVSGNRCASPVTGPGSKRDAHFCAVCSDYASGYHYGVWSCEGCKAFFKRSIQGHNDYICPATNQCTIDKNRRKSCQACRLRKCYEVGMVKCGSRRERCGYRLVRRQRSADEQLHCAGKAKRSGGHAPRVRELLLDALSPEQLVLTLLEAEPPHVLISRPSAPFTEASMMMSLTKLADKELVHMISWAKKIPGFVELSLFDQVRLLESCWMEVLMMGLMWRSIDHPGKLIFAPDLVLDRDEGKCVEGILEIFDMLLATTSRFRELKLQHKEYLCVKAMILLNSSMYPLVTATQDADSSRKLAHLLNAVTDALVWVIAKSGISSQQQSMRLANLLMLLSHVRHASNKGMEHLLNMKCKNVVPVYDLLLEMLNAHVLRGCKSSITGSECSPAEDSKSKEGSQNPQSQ
- test_method_notes: OT_ER_ERaERb_0480: Odyssey Thera (OT) 8-hour HEK293T Protein-Complementation Assay for Estrogen Receptor-alpha/-beta Heterodimer (AID 2283352)
Inconclusive results are not listed. Activity calls are given as the source filed them. How the source made its calls: active means hit-call score of the fitted dose curve at least 0.9, where 1 is the maximum; inconclusive means response in the unintended direction; inactive means score below 0.9.
Classes to choose from: active, inactive

> print(dat)
                        molecule  class.name
1            Oc1ccccc1Cc1ccccc1O      active
2  CCCCCCCCCCCCCCCCCCOS(=O)(=O)O    inactive
3   COc1ccc(C(=O)c2ccccc2)c(O)c1      active
4            CCOC(=O)c1ccc(C)cc1    inactive
5       Cc1ccc([N+](=O)[O-])cc1N    inactive

Asked: Kindly provide the recorded test outcome for the following molecule: "Cc1c(C(=O)c2c[nH]n(C)c2=O)ccc(S(C)(=O)=O)c1C1=NOCC1"
Given back: inactive

Asked: Kindly provide the recorded test outcome for the following molecule: CC(=O)OC1CCCCC1C(C)(C)C (stereo not given)
Given back: inactive

Asked: Kindly provide the recorded test outcome for the following molecule: "Cc1ccc(C)c(OCCCC(C)(C)C(=O)O)c1"
Given back: inactive

Asked: Kindly provide the recorded test outcome for the following molecule: "C=CCOC(=O)c1ccc(C(=O)OCC=C)c(C(=O)OCC=C)c1"
Given back: inactive

Asked: Kindly provide the recorded test outcome for the following molecule: "CCOC(=O)C1=NOC(c2ccccc2)(c2ccccc2)C1"
Given back: inactive

Asked: Kindly provide the recorded test outcome for the following molecule: "CCCCCCCO"
Given back: inactive

Asked: Kindly provide the recorded test outcome for the following molecule: "CCCCCCCOC(=O)c1ccc(O)cc1"
Given back: active

Asked: Kindly provide the recorded test outcome for the following molecule: "CCCCNS(=O)(=O)c1ccccc1"
Given back: inactive

Asked: Kindly provide the recorded test outcome for the following molecule: "Oc1ccc(-c2ccccc2)c(Cl)c1"
Given back: active

Asked: Kindly provide the recorded test outcome for the following molecule: "C1CNCCN1"
Given back: inactive
